Cited source for all entries: PubChem BioAssay AID1417

# systemName: Induced myeloid leukemia cell differentiation protein Mcl-1 (Homo sapiens)
# protocolText: Mcl-1 Noxa peptide disruption concentration-response – biochemical, TR-FRET, dose response (AID 1417);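 note: 100% = protein plus peptide without compound and 0% = peptide alone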
# conditionsUsed: Mcl-1/Noxa peptide interaction, cell-free TR-FRET (terbium/rhodamine), 2 h; at 54 µM (top of the series)
The whole screen tested about 1,100 compounds, of which about 880 (80%) were called active. The set was probably picked from earlier hits. The list shows a part of the results. Measured potencies and affinities stand elsewhere.
assayMetric: percent of control (lower = inhibition)

molecule	systemName	assayMetric	result
Cn1c(=O)c2c(nc(NCc3ccco3)n2CC(O)COc2ccccc2)n(C)c1=O (stereo not given)	Induced myeloid leukemia cell differentiation protein Mcl-1 (Homo sapiens)	percent of control (lower = inhibition)	81.3% (inactive)
CC1CCCCC1NC(=O)c1ccc2c(c1)[nH]c(=O)n2C1CCCC1 (stereo not given)	Induced myeloid leukemia cell differentiation protein Mcl-1 (Homo sapiens)	percent of control (lower = inhibition)	86.3% (inactive)
COc1ccccc1C1NC=C([N+](=O)[O-])C=C1[N+](=O)[O-] (stereo not given)	Induced myeloid leukemia cell differentiation protein Mcl-1 (Homo sapiens)	percent of control (lower = inhibition)	111% (inactive)
CN(C)c1ccc(NC(=O)/C=C/c2c(Cl)cccc2Cl)cc1	Induced myeloid leukemia cell differentiation protein Mcl-1 (Homo sapiens)	percent of control (lower = inhibition)	80.1% (inactive)
c1ccc(Nc2cccc(Nc3ccccc3)c2)cc1	Induced myeloid leukemia cell differentiation protein Mcl-1 (Homo sapiens)	percent of control (lower = inhibition)	60.5% (inactive)
